These data points were gathered from patent US11279681B2.

pIC50 for assorted compounds
SYSTEM_UNDER_TEST: HDAC6 (Homo sapiens, UniProt Q9UBN7)
EXPERIMENT_DESCRIPTION: In vitro histone deacetylase assay: enzymatic HDAC6 electrophoretic mobility shift assay
Format: biochemical
TEST_CONDITIONS: full length human recombinant HDAC6, 1 nM enzyme, 2 μM peptide substrate RHKK(Ac)-NH2, 25° C.; read-out: Inhibitory Concentration (IC50) Values for Representative Compounds against HDAC6, Activity Range
pIC50: −log10 of the molar value.

SMI | pIC50
C[C@@H]1COc2cc(C(=O)NO)ccc2CN1c1ccccc1 | 6.30 to 7.00
C[C@H]1COc2cc(C(=O)NO)ccc2CN1C(=O)N1CCCCC1 | ≥ 7.00
O=C1CN(Cc2ccccc2OC(F)(F)F)Cc2cc(C(=O)NO)ccc2N1 | ≥ 7.00
C[C@H]1CN(c2ccccc2)Cc2ccc(C(=O)NO)cc2O1 | < 6.30
CC(C)[C@@H]1COc2cc(C(=O)NO)ccc2CN1c1ccccc1 | 6.30 to 7.00
O=C(NO)c1ccc2c(c1)CN(c1nc3ccccc3[nH]1)CCO2 | 6.30 to 7.00
CC(C)c1ccc(CN2CC(=O)Nc3ccc(C(=O)NO)cc3C2)cc1 | ≥ 7.00
COc1ccc(NC(=O)N2Cc3ccc(C(=O)NO)cc3O[C@@H](c3ccccc3)C2)cc1 | ≥ 7.00
COC[C@H]1COc2cc(C(=O)NO)ccc2CN1Cc1ccc(OC)cc1 | ≥ 7.00
O=C1CN(Cc2ccc(-n3cccn3)cc2)Cc2cc(C(=O)NO)ccc2N1 | ≥ 7.00
COC[C@@H]1COc2cc(C(=O)NO)ccc2CN1c1ccccc1 | 6.30 to 7.00
C[C@H]1COc2cc(C(=O)NO)ccc2CN1CC1COC1 | ≥ 7.00
C[C@H]1COc2cc(C(=O)NO)ccc2CN1C(=O)Oc1ccc(F)cc1 | ≥ 7.00
O=C1CN(Cc2ccc(-c3ccccn3)cc2)Cc2cc(C(=O)NO)ccc2N1 | ≥ 7.00
N#Cc1ccc(CN2CC(=O)Nc3ccc(C(=O)NO)cc3C2)cc1 | 6.30 to 7.00
COc1ccc(CN2CCOc3ccc(C(=O)NO)cc3C2)cn1 | < 6.30
O=C(NO)c1ccc2c(c1)OCC1(CC1)N(c1ccccc1)C2 | 6.30 to 7.00
COc1ccc(CN2CCOc3cc(C(=O)NO)ccc3C2)cc1 | 6.30 to 7.00
C[C@H]1COc2cc(C(=O)NO)ccc2CN1C(=O)N1CCN(C)CC1 | 6.30 to 7.00
COC[C@@H]1COc2cc(C(=O)NO)ccc2CN1c1ccccc1C | ≥ 7.00

###

SYSTEM_UNDER_TEST: UniProtKB Q9UBN7
Sequence (Q9UBN7 1-1215): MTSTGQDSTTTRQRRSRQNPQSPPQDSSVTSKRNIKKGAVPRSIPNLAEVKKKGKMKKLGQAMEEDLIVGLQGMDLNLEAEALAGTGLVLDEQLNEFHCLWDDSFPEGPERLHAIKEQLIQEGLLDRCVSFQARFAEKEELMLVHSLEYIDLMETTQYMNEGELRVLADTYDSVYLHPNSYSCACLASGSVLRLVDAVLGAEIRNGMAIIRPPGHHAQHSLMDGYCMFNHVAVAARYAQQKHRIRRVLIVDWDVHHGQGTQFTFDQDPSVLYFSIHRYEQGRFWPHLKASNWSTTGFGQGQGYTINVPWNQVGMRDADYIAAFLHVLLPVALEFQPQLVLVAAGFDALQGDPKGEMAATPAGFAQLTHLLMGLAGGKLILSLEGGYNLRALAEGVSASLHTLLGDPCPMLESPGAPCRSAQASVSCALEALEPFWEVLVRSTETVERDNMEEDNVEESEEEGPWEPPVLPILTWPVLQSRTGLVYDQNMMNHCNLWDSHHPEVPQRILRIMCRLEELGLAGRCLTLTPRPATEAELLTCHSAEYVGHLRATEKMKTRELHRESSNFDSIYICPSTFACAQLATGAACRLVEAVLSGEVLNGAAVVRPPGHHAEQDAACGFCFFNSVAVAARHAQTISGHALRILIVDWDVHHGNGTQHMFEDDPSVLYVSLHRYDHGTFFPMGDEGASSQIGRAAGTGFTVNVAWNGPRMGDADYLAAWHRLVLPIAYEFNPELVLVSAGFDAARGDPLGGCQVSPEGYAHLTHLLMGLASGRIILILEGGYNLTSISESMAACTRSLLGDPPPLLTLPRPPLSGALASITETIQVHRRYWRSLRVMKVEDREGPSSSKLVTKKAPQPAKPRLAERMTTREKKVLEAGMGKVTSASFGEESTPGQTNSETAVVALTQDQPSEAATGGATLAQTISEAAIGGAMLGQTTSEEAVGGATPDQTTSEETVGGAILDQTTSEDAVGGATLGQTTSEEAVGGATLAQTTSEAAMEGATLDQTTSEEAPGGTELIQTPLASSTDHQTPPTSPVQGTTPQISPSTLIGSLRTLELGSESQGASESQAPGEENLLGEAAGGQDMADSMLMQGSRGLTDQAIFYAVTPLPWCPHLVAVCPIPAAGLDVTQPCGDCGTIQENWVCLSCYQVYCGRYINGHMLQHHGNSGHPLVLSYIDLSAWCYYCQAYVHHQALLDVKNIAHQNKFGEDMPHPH
EXPERIMENT_DESCRIPTION: In vitro histone deacetylase assay: enzymatic HDAC6 electrophoretic mobility shift assay
Format: biochemical
TEST_CONDITIONS: full length human recombinant HDAC6, 1 nM enzyme, 2 μM peptide substrate RHKK(Ac)-NH2, 25° C.; read-out: Inhibitory Concentration (IC50) Values for Representative Compounds against HDAC6, Activity Range

COMPOUND | IC50
O=C1CN(CC2CC2)Cc2cc(C(=O)NO)ccc2N1 | 100 to 500 nM
CN(C)Cc1cccc(CN2CC(=O)Nc3ccc(C(=O)NO)cc3C2)c1 | > 500 nM
COc1ccc(S(=O)(=O)N2Cc3ccc(C(=O)NO)cc3O[C@@H](C)C2)cc1 | > 500 nM
CN1CCN(C(=O)N2CCOc3cc(C(=O)NO)ccc3C2)CC1 | > 500 nM
O=C(NO)c1ccc2c(c1)CN(Cc1nc3ccccc3[nH]1)CCO2 | > 500 nM
C[C@H]1COc2cc(C(=O)NO)ccc2CN1S(C)(=O)=O | ≤ 100 nM
C[C@H]1COc2cc(C(=O)NO)ccc2CN1C | 100 to 500 nM
C[C@H]1COc2cc(C(=O)NO)ccc2CN1c1cccnc1 | ≤ 100 nM
O=C1CN(Cc2ccn3ccnc3c2)Cc2cc(C(=O)NO)ccc2N1 | 100 to 500 nM
CC(C)[C@@H]1COc2cc(C(=O)NO)ccc2CN1C | ≤ 100 nM
O=C(NO)c1ccc2c(c1)OCCN(C1CCCCC1)C2 | > 500 nM
CC(C)c1ccc(CN2CC(=O)Nc3ccc(C(=O)NO)cc3C2)nc1 | 100 to 500 nM
C[C@H]1COc2cc(C(=O)NO)ccc2CN1c1ccncc1 | 100 to 500 nM
COCCS(=O)(=O)N1Cc2ccc(C(=O)NO)cc2OC[C@@H]1C | 100 to 500 nM
C[C@H]1COc2cc(C(=O)NO)ccc2CN1c1ccccc1 | ≤ 100 nM
C[C@H]1COc2cc(C(=O)NO)ccc2CN1C(=O)N(C)C1CCOCC1 | ≤ 100 nM
O=C1CN(Cc2ccc(OC(F)(F)F)cc2)Cc2cc(C(=O)NO)ccc2N1 | 100 to 500 nM
C[C@H]1COc2cc(C(=O)NO)ccc2CN1CCN1CCOCC1 | 100 to 500 nM
COC1CCN(C(=O)N2Cc3ccc(C(=O)NO)cc3OC[C@@H]2C)CC1 | ≤ 100 nM
COc1ccc(S(=O)(=O)N2CC(=O)Nc3ccc(C(=O)NO)cc3C2)cc1 | > 500 nM
COC1CCN(C(=O)N2Cc3ccc(C(=O)NO)cc3OC[C@@H]2C)C1 (some centres unmarked) | ≤ 100 nM
COCCn1c(N2CCOc3ccc(C(=O)NO)cc3C2)nc2ccccc21 | 100 to 500 nM
COc1ccc(CCN2CCOc3cc(C(=O)NO)ccc3C2=O)cc1 | 100 to 500 nM
O=C1CN(Cc2cccc(Cl)c2)Cc2cc(C(=O)NO)ccc2N1 | 100 to 500 nM
COc1ccc(CN2CCOc3cc(C(=O)NO)ccc3[C@H]2C)cc1 | > 500 nM
C[C@H]1COc2cc(C(=O)NO)ccc2CN1C(=O)OC1CCC1 | ≤ 100 nM
CC[C@H]1COc2cc(C(=O)NO)ccc2CN1C | ≤ 100 nM
O=C(NO)c1ccc2c(c1)OCCN(C(=O)N1CCCCC1)C2 | ≤ 100 nM
COc1ccc(CN2CCOc3cc(C(=O)NO)ccc3[C@@H]2C)cc1 | 100 to 500 nM
CC1COCCN1C(=O)N1Cc2ccc(C(=O)NO)cc2OC[C@@H]1C (some centres unmarked) | ≤ 100 nM
C[C@H]1COc2cc(C(=O)NO)ccc2CN1CCC1CCCO1 (some centres unmarked) | ≤ 100 nM
COc1ccc(CCN2CCOc3ccc(C(=O)NO)cc3C2)cc1 | > 500 nM
